- SYSTEM TESTED: P-selectin/PSGL-1 interaction (Homo sapiens, UniProt P16109)
- Construct: comprised of the lectin and epidermal growth factor-like (EGF) domains expressed in CHO cells; made in house; host or cells: CHO cells (P-LE)
- Sequence (P16109 42-198): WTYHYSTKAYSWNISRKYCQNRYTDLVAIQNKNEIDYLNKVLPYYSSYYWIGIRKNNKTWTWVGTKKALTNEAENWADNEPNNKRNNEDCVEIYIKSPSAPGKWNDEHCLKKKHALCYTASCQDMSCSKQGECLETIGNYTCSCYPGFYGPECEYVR
- ASSAY SUMMARY: Biacore P-Selectin/PSGL-1 Inhibition Assay (surface plasmon resonance)
- Type: binding
- RUN PARAMETERS: 250 uM test compound, 500 nM P.LE, immobilized PSGL-1 19ek, 10% DMSO, pH 7.4
QUANTITY MEASURED: inhibition at 250 µM (%)

Here's what some known entries look like.
O=C(O)c1c(O)c(C2(c3ccccc3)CC2)nc2c(C(O)(C(F)(F)F)C(F)(F)F)cccc12 [Compound 49] :: 58
CCc1cccc2c(C(=O)O)c(O)c(C3(c4ccccc4)CC3)nc12 [Compound 14] :: 23
O=C(O)c1c(O)c(C2(c3ccc(Cl)cc3)CC2)nc2c(-c3ccccc3)cccc12 [Compound 6] :: 98

A. Cc1cc(C(F)(F)F)cc2c(C(=O)O)c(O)c(C3(c4ccc(Cl)cc4)CC3)nc12 [Compound 97]
B. CCc1cccc2c(C(=O)O)c(O)c(C3(c4ccc(C(F)(F)F)cc4)CC3)nc12 [Compound 87]
[ask] Select one. Lower inhibition at 250 µM: A or B Please respond with the label that marks your chosen entry.
[reply] A
(A: 40%, B: 61%)
